// values below are reported IC50
# System: DLD-1 cells
# Test Summary: Inhibition of proliferation, DLD-1 BRCA2 wt control (Cell Titre Glo 3D)
# Format: cell-based
# Assay Conditions: Homo sapiens, DLD-1, proliferation, luminescence; second Prolif column (c6), taken as DLD-1 BRCA2 wt control; read-out: POLQ PD Prolif Lumin (converted)
Readout Kind: IC50

* FC(F)(F)C1(Oc2ncnc3c2nc(-c2ccc(OCCN4CCNCC4)cc2Cl)n3Cc2ccccc2)COC1 [Example T424] | 10 µM
* CC1(Oc2cccc3c2nc(-c2ccc(OCCC(=O)O)cc2Cl)n3Cc2cccc(Cl)c2)CCC1 [Example T406] | > 10 µM
* CC1(Oc2ncnc3c2nc(-c2ccc(OCCCCCC(=O)O)cc2Cl)n3Cc2cccc(Cl)c2)CC1 [Example T437] | > 10 µM
* Cc1ccnc(Cn2c(-c3ccc(C(=O)N4CC5(CCN5)C4)cc3Cl)nc3c(OC4(C)CC4)ncnc32)c1 [Example T429] | > 10 µM

* * *

// values below are reported IC50
# System: DLD-1 cells
# Test Summary: Inhibition of proliferation, DLD-1 BRCA2 wt control (Cell Titre Glo 3D)
# Assay type: cell-based
# Assay Conditions: Homo sapiens, DLD-1, DLD1 BRCA2 wt, mean; read-out: POLQ PD Prolif Lumin DLD1 mean pIC50 (converted)
Readout Kind: IC50

- CC1(Oc2ncnc3c2nc(-c2cccc(OCCCOCC(=O)O)c2Cl)n3Cc2cc(Cl)ccc2C#N)CC1 [Example U98]: > 10 µM
- COc1ccc(F)cc1Cn1c(-c2ccc(OCC[C@@H](C)C(=O)O)cc2Cl)nc2c(OC3(C)CC3)ncnc21 [Example U67]: > 10 µM
- COc1ccc(Cl)cc1Cn1c(-c2ccc(OCCOC(C)(C)C(=O)O)cc2Cl)nc2c(OC3(C)CC3)ncnc21 [Example U54]: > 10 µM
- COc1ccc(Cl)cc1Cn1c(-c2cccc(OCCCOC(C)(C)C(=O)O)c2Cl)nc2c(OC3(C)CC3)ncnc21 [Example U90]: > 10 µM
- C[C@@H](CCOc1ccc(-c2nc3c(OC4(C)CC4)ncnc3n2Cc2cccc(C#N)c2)c(Cl)c1)C(=O)O [Example U8]: > 6.31 µM
- COc1ccc(C)cc1Cn1c(-c2cccc(OCCC(=O)O)c2Cl)nc2c(OC3(C)CC3)ncnc21 [Example U89]: 7.94 µM
- COc1ccc(F)cc1Cn1c(-c2cccc(OCCCOCC(=O)O)c2Cl)nc2c(OC3(C)CC3)ncnc21 [Example U71]: > 10 µM
- COc1ccc(Cl)cc1Cn1c(-c2ccc(OCCCOC(C)(C)C(=O)O)cc2Cl)nc2c(OC3(C)CC3)ncnc21 [Example U92]: > 10 µM
- COc1ccc(C)cc1Cn1c(-c2cccc(OCCCOCC(=O)O)c2Cl)nc2c(OC3(C)CC3)ncnc21 [Example U93]: > 10 µM
- COc1ccc(Cl)cc1Cn1c(-c2cccc(OCCOCC(=O)O)c2Cl)nc2c(OC3(C)CC3)ncnc21 [Example U52]: > 10 µM
- COc1ccc(C#N)cc1Cn1c(-c2ccc(OCCC(C)C(=O)O)cc2Cl)nc2c(OC3(C)CC3)ncnc21 (racemic) [Example U14]: > 10 µM
- COc1ccc(Cl)c(F)c1Cn1c(-c2ccc(OCCC(C)C(=O)O)cc2Cl)nc2c(OC3(C)CC3)ncnc21 (racemic) [Example U57]: > 10 µM
- COc1ccc(C)cc1Cn1c(-c2ccc(OCC[C@H](C)C(=O)O)cc2Cl)nc2c(OC3(C)CC3)ncnc21 [Example U94]: > 10 µM
- CC1(Oc2ncnc3c2nc(-c2cccc(OCCOCC(=O)O)c2Cl)n3Cc2cc(Cl)ccc2F)CC1 [Example U22]: > 10 µM
- COc1ccc(F)cc1Cn1c(-c2cccc(OCC(C)CC(=O)O)c2Cl)nc2c(OC3(C)CC3)ncnc21 (single isomer, unassigned) [Example U77]: > 10 µM
- C[C@@H](CCOc1cccc(-c2nc3c(OC4(C)CC4)ncnc3n2Cc2cc(Cl)ccc2C#N)c1Cl)C(=O)O [Example U87]: > 10 µM
- COc1ccc(Cl)cc1Cn1c(-c2ccc(OCCOCC(=O)O)cc2Cl)nc2c(OC3(C)CC3)ncnc21 [Example U48]: > 10 µM
- COc1ccc(F)cc1Cn1c(-c2cccc(OCCC(=O)O)c2Cl)nc2c(OC3(C)CC3)ncnc21 [Example U83]: > 10 µM
- COc1ccc(Cl)cc1Cn1c(-c2cccc(CCC(=O)O)c2Cl)nc2c(OC3(C)CC3)ncnc21 [Example U64]: > 10 µM
- C[C@@H](CCOc1cccc(-c2nc3c(OC4(C)CC4)ncnc3n2Cc2cc(Cl)ccc2F)c1Cl)C(=O)O [Example U24]: > 10 µM
- C[C@H](CCOc1ccc(-c2nc3c(OC4(C)CC4)ncnc3n2Cc2cc(Cl)ccc2C#N)c(Cl)c1)C(=O)O [Example U81]: > 10 µM
- C[C@@H](CCOc1ccc(-c2nc3c(OC4(C)CC4)ncnc3n2Cc2cc(Cl)ccc2C#N)c(Cl)c1)C(=O)O [Example U82]: > 10 µM
- CC(CCOc1ccc(-c2nc3c(OC4(C)CC4)ncnc3n2Cc2c(F)cccc2C#N)c(Cl)c1)C(=O)O (racemic) [Example U13]: > 10 µM
- COc1ccc(Cl)cc1Cn1c(-c2ccc(OCC(C)CC(=O)O)cc2Cl)nc2c(OC3(C)CC3)ncnc21 (racemic) [Example U42]: > 10 µM
- C[C@H](CCOc1cccc(-c2nc3c(OC4(C)CC4)ncnc3n2Cc2cc(Cl)ccc2C#N)c1Cl)C(=O)O [Example U95]: > 10 µM
- COc1ccc(Cl)cc1Cn1c(-c2ccc(OCCC(C)(C)C(=O)O)cc2Cl)nc2c(OC3(C)CC3)ncnc21 [Example U31]: > 7.94 µM
- C[C@@H](CCOc1ccc(-c2nc3c(OC4(C)CC4)ncnc3n2Cc2cc(Cl)ccc2F)c(Cl)c1)C(=O)O [Example U11]: > 6.31 µM
- COc1ccc(Cl)cc1Cn1c(-c2ccc(OCCCC(C)(C)C(=O)O)cc2Cl)nc2c(OC3(C)CC3)ncnc21 [Example U47]: 6.31 µM
